Tested on: human PI3K p85 RNA
Test: Inhibition of human PI3K p85 mRNA levels by antisense oligonucleotides, real-time quantitative PCR
Format: cell-based
Details: chimeric phosphorothioate oligonucleotides with 2′-MOE wings and deoxy gap, oligonucleotide 150 nM, averaged from two experiments
Experimental: Cells were harvested 16 hours after oligonucleotide treatment. Poly(A)+ mRNA was isolated according to Miura et al., Clin. Chem., 1996, 42, 1758-1764. Other methods for poly(A)+ mRNA isolation are taught in, for example, Ausubel, F. M. et al., Current Protocols in Molecular Biology, Volume 1, pp. 4.5.1-4.5.3, John Wiley & Sons, Inc., 1993. […] Data were obtained by real-time quantitative PCR as described in other examples herein and are averaged from two experiments. […]
Strand notation (5' to 3'): a small letter for the sugar, then the base; units joined by * are phosphorothioate-linked, units joined directly phosphodiester-linked; [ ] holds rarer units or linkages, { } end groups; capitals alone tell only the bases. e = 2'-O-(2-methoxyethyl) (MOE); [5mC] = 5-methylcytosine; d = 2'-deoxy (DNA)
quantity measured: % Inhibition of PI3K p85 mRNA levels (%)
Note: unit % is implicit; provide only the numeric part.

> print(dat)
                                  substance  val
1  28034 (antisense eT*eT*e[5mC]*eA*dA*dG*dT*dC*dT*dT*dC*dT*dT*dC*e[5mC]*eA*eA*eT) [compound 28034]   28
2  28048 (antisense e[5mC]*eT*eG*e[5mC]*dC*dT*dC*dT*dC*dT*dC*dT*dC*dC*eT*e[5mC]*e[5mC]*eG) [compound 28048]    0
3  28027 (antisense eT*eT*eA*eT*dT*dC*dA*dT*dA*dC*dC*dG*dT*dT*eG*eT*eT*eG) [compound 28027]   45
4  28028 (antisense eA*eT*eT*e[5mC]*dA*dG*dC*dA*dT*dT*dT*dT*dG*dT*eA*eA*eG*eG) [compound 28028]    0
5  28033 (antisense eA*eT*e[5mC]*e[5mC]*dT*dT*dT*dG*dT*dA*dT*dT*dT*dC*eT*eT*eT*e[5mC]) [compound 28033]   46

Now look at this one.
Request: Reported % Inhibition of PI3K p85 mRNA levels, substance 28052 (antisense eA*eT*eT*e[5mC]*dT*dC*dC*dC*dA*dA*dA*dG*dC*dG*eT*e[5mC]*e[5mC]*e[5mC]) [compound 28052] : ____
Response: 55
